meta.source: patent US20260015418A1

// values below are reported EC50
target desc: T1, human ROR1 protein (ROR1-His; Sino Biological, Catalog #13968-H08H) (human, UniProt Q01973 30-406)
T1 construct: extracellular domain; Bought protein; also called human recombinant ROR1 protein
experiment notes: ELISA, plate coated with ROR1-His (1 ug/ml), bound antibody detected with HRP-conjugated anti-Fab polyclonal antibody, OD at 450 nm; upper graph and table
Give the value, in units of nM, as a plain number.

Req: What value of EC50 has been recorded for this entry: BA6 antibody (WT) (antibody, V domains shown, Anti-ROR1 antibody from WO2019-225992 A1, said to be based on IgG1; only the variable domains are tied to the monospecific IgG; also called BA6 IgG (WT); parental clone) VH: EVQLLESGGGLVQPGGSLRLSCAASGFTFSNYDMSWVRQAPGKGLEWVSAIYHSGSSKYYADSVKGRFTISRDNSKNTLYLQMNSLRAEDTAVYYCARGGNGAWDTGFDYWGQGTLVTVSS VL: QSVLTQPPSASGTPGQRVTISCSGSSSNIGSNDVSWYQQLPGTAPKLLIYYDNNRPSGVPDRFSGSKSGTSASLAISGLRSEDEADYYCGAWDDSLSGYVFGGGTKLTVL
Resp: 0.707

Req: What value of EC50 has been recorded for this entry: M10 (PTM mutant of BA6 IgG) (antibody, V domains shown, IgG of BA6 with one CDRH3 mutation; Kabat H97 (same column as M9)) VH: EVQLLESGGGLVQPGGSLRLSCAASGFTFSNYDMSWVRQAPGKGLEWVSAIYHSGSSKYYADSVKGRFTISRDNSKNTLYLQMNSLRAEDTAVYYCARGGYGAWDTGFDYWGQGTLVTVSS VL: QSVLTQPPSASGTPGQRVTISCSGSSSNIGSNDVSWYQQLPGTAPKLLIYYDNNRPSGVPDRFSGSKSGTSASLAISGLRSEDEADYYCGAWDDSLSGYVFGGGTKLTVL
Resp: 2.76

Req: What value of EC50 has been recorded for this entry: M8 (PTM mutant of BA6 IgG) (antibody, V domains shown, IgG of BA6 with one CDRH3 mutation; Kabat H97 (same column as M9)) VH: EVQLLESGGGLVQPGGSLRLSCAASGFTFSNYDMSWVRQAPGKGLEWVSAIYHSGSSKYYADSVKGRFTISRDNSKNTLYLQMNSLRAEDTAVYYCARGGGGAWDTGFDYWGQGTLVTVSS VL: QSVLTQPPSASGTPGQRVTISCSGSSSNIGSNDVSWYQQLPGTAPKLLIYYDNNRPSGVPDRFSGSKSGTSASLAISGLRSEDEADYYCGAWDDSLSGYVFGGGTKLTVL
Resp: 7.56

Req: What value of EC50 has been recorded for this entry: M3 (PTM mutant of BA6 IgG) (antibody, V domains shown, IgG of BA6 with one mutation; Kabat L51) VH: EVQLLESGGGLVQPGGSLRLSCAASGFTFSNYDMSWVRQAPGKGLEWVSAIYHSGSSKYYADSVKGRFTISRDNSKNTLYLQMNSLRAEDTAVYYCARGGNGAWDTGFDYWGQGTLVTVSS VL: QSVLTQPPSASGTPGQRVTISCSGSSSNIGSNDVSWYQQLPGTAPKLLIYYENNRPSGVPDRFSGSKSGTSASLAISGLRSEDEADYYCGAWDDSLSGYVFGGGTKLTVL
Resp: 0.478
